Overview of recorded microsomal CLint at 1 μM for various compounds
test name: CLint estimates using human liver microsomes (Method 4)
Format: in vitro ADME
cond: pH 7.4, 1 μM compound, read-out: Mics - CLint (HLM CLint)

Here's what some known entries look like.
* CN1CCN(c2ccc(Nc3ncc4c(n3)N(C)CN(c3c(Cl)cccc3Cl)C4=O)cc2)CC1 | 15 to 50 µL/min/mg
* CNCc1cc(Nc2ncc3c(n2)N(C)CN(c2c(Cl)cccc2Cl)C3=O)ccc1OC | ≤ 15 µL/min/mg
* C[C@@H]1CN(c2ccc(Nc3ncc4c(n3)N(C)CN(c3c(Cl)cccc3Cl)C4=O)cc2CO)CCN1C | ≤ 15 µL/min/mg

Form field microsomal CLint at 1 μM, entry O=C1c2cnc(Nc3ccc(N4CCNCC4)cc3)nc2NCN1c1c(Cl)cccc1Cl : ≤ 15 µL/min/mg

Form field microsomal CLint at 1 μM, entry CN1CCc2ccc(Nc3ncc4c(n3)N(C)CN(c3c(Cl)cccc3Cl)C4=O)cc2C1 : 15 to 50 µL/min/mg
